Just for reference, patent US9255090B2 is where these values come from.

# IC50 values compiled below
Molecular target: UniProt Q9Y5Y4
Sequence (Q9Y5Y4 whole entry): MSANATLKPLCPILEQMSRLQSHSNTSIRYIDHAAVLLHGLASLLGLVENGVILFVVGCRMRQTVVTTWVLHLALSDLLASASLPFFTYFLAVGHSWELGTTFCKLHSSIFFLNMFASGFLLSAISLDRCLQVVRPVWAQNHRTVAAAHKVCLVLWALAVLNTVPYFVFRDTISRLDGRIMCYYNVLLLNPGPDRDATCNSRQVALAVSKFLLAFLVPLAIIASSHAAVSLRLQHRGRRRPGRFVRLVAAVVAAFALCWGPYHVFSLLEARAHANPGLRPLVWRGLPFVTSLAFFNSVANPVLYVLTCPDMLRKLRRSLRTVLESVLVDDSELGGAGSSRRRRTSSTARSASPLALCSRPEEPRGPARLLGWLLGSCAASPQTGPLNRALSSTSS
Quantity: IC50 (nM)

compound="COc1ccc(CC(=O)O)cc1-c1ccc(F)c2c1CN(C(=O)C1CC1)CC2 [Example 52]" result_unit=nM experimental_result=68.9
compound="COc1cc(CC(=O)O)ccc1-c1ccc(F)c2c1CN(C(=O)CCN1CCc3ccccc31)CC2 [Example 191]" result_unit=nM experimental_result=2.42
compound="CC(C)Oc1ccc(CC(=O)O)cc1-c1ccc(F)c2c1CN(C(=O)OCc1ccccc1)CC2 [Example 22]" result_unit=nM experimental_result=4.72
compound="COc1ccc(CC(=O)O)cc1-c1ccc(F)c2c1CN(C(=O)C1C(C)(C)C1(C)C)CC2 [Example 50]" result_unit=nM experimental_result=267
compound="CC(C)Oc1ccc(CC(=O)O)cc1-c1ccc(F)c2c1CN(C(=O)CC1COc3ccccc31)CC2 (racemic) [Example 298]" result_unit=nM experimental_result=1.2
compound="COc1ccc(CC(=O)O)cc1-c1ccc(F)c2c1CN(C(=O)CCn1cc(C)c3ccccc31)CC2 [Example 57]" result_unit=nM experimental_result=16.2
compound="COc1ccc(CC(=O)O)cc1-c1ccc(F)c2c1CN(C(=O)[C@@H]1C[C@H]1c1ccccc1C)CC2 (racemic) [Example 6]" result_unit=nM experimental_result=4.22
compound="C=C(C)CCOC(=O)N1CCc2c(F)ccc(-c3cc(CC(=O)O)ccc3OCC)c2C1 [Example 379]" result_unit=nM experimental_result=2.5
